Biological target: T1, CRBN, Q96SW2;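 also: pooled lentiviral library of zinc finger degron-EGFP fusions in mCherry-positive Jurkat cells, FACS-sorted after compound exposure, with degron abundance counted by next-generation sequencing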
T1 chain: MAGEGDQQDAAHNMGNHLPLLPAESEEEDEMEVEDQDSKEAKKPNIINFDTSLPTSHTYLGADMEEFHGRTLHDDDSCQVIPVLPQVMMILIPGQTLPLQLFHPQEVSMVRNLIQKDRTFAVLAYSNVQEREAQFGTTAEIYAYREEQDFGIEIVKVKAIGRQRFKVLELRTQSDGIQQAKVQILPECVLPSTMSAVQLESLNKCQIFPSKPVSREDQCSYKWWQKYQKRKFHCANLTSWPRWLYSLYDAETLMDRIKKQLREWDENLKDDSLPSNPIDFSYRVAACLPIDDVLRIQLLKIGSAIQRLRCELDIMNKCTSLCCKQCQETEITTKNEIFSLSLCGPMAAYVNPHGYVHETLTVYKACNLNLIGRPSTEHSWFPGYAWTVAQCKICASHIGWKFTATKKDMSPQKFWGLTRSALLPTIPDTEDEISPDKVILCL
Test: log2 fold change of degron read counts, EGFP-low vs EGFP+ sorted cells (limma voom), compound-induced degradation; higher = more compound-induced degradation of the degron-EGFP fusion; degrons are variants of IKZF1/3 zinc finger 2; compound dose not given here
Conditions: Jurkat; 18 h; compound: compound 19 (5-tert-butyl-thalidomide)
Over roughly 8,300 sequences, “log2 fold change of degron read counts, EGFP-low vs EGFP+ sorted cells (limma voom), compound-induced degradation” has its median near -1.1; the highest 2% begin near 3.2. The sample holds the highest values, similar sequences and a random draw of the others, so the mix is not that of the screen.
measuredEndpoint: log2 fold change of degron read counts

- sequenceString: "LACEICGFRCTQKGNLLRHIKL [46L_47A_49E_50I_52G_53F_54R_55C_67L_, Q9UKT9]"
  observedResult: 3.5
- sequenceString: "LDCEICGFRCTQKGNLLRHIKL [46L_47D_49E_50I_52G_53F_54R_55C_67L_, Q9UKT9]"
  observedResult: 0.949
- sequenceString: "LNCEICGFRCTQKGNLLRHIKL [46L_47N_49E_50I_52G_53F_54R_55C_67L_, Q9UKT9]"
  observedResult: 1.31
- sequenceString: "LMCEICGFRCTQKGNLLRHIKL [46L_47M_49E_50I_52G_53F_54R_55C_67L_, Q9UKT9]"
  observedResult: 0.992
- sequenceString: "LVCEICGFRCTQKGNLLRHIKL [46L_47V_49E_50I_52G_53F_54R_55C_67L_, Q9UKT9]"
  observedResult: 2.5
- sequenceString: "LSCEICGFRCTQKGNLLRHIKL [46L_47S_49E_50I_52G_53F_54R_55C_67L_, Q9UKT9]"
  observedResult: 2.82
- sequenceString: "LHCEICGFRCTQKGNLLRHIKL [46L_47H_49E_50I_52G_53F_54R_55C_67L_, Q9UKT9]"
  observedResult: 2.71

Where do these numbers come from? They come from the supplement of paper PMC12645437.
